// data source = the METLIN SMRT retention time set (Domingo-Almenara et al. 2019)

- test_protocol: gradient 5% acetonitrile 3 min, to 50% in 2 min, to 85% in 15 min, held 3 min, 100 µL/min
- measurement_context: column: Zorbax Extend-C18 2.1 x 50 mm; eluents: water / acetonitrile, 0.1% formic acid
Overview of reported RP-LC retention time across a group of molecules:

{"molecule": "CCn1nccc1-c1cccc(-c2noc(C3(c4ccc(OC)cc4)CC3)n2)c1", "RP-LC retention time": "1240 s"}
{"molecule": "CC1(C)CS(=O)(=O)N(c2cccc(C(=O)NCCc3c[nH]c4ccccc34)c2)C1=O", "RP-LC retention time": "825 s"}
{"molecule": "CC(C)CC(=O)Nc1ccc(-c2nc(-c3ccc(F)cc3)no2)cc1", "RP-LC retention time": "1170 s"}
{"molecule": "Cc1ccc(-c2cc3c(=O)n(Cc4nc(-c5ccccc5Cl)no4)ncn3n2)c(C)c1", "RP-LC retention time": "1220 s"}
{"molecule": "COc1cc(OC)c(NC(=O)Cn2c(N(C)Cc3ccccc3)nc(C)cc2=O)cc1Cl", "RP-LC retention time": "818 s"}
{"molecule": "O=C(NC1CCCCCC1)C1CC(=O)N(CCc2c[nH]c3ccc(F)cc23)C1 (centres undefined)", "RP-LC retention time": "812 s"}
{"molecule": "O=C(CC1CCN(C(=O)c2ccc3oc(C4CC4)nc3c2)CC1)NC1CCCC1", "RP-LC retention time": "715 s"}
{"molecule": "O=C(c1cnccn1)N1CCCC1c1noc(CO)n1 (centres undefined)", "RP-LC retention time": "572 s"}
{"molecule": "CC(=O)N1CCc2cc(C)c(S(=O)(=O)N3CCOCC3)cc21", "RP-LC retention time": "708 s"}
{"molecule": "COc1ccc(-c2nc3cnccn3c2Nc2cccc(Cl)c2C)cc1OC", "RP-LC retention time": "890 s"}
{"molecule": "Nc1ccc(Oc2ccc(N)c([N+](=O)[O-])c2)cc1[N+](=O)[O-]", "RP-LC retention time": "899 s"}
{"molecule": "Cc1ccc(C)c(N2CC(c3nc(-c4ccc5c(c4)OCO5)no3)CC2=O)c1 (centres undefined)", "RP-LC retention time": "998 s"}
{"molecule": "Cn1cccc1C(=O)N1CCCC1c1nc(-c2ccccc2)n[nH]1 (centres undefined)", "RP-LC retention time": "716 s"}
{"molecule": "CC(C)c1ccc(CNC(=O)[C@@]23CCCC[C@H]2N(C)C(=O)CC3)cc1", "RP-LC retention time": "786 s"}
{"molecule": "Cc1ccc(-n2ccc(=O)c(-c3nc(-c4ccc(Cl)cc4)no3)n2)cc1", "RP-LC retention time": "1030 s"}
{"molecule": "Cc1ccc(Cn2c(=O)c(N3CCN(C(=O)NCc4ccco4)CC3)nc3cccnc32)cc1", "RP-LC retention time": "706 s"}
{"molecule": "O=C(CSCc1ccccc1)Nc1ccc(CC(=O)NC2CC2)cc1", "RP-LC retention time": "705 s"}
{"molecule": "C[C@@H]1CN(CC(=O)Nc2ccc3c(c2)Cc2cccc(-c4cc(=O)cc(N5CCOCC5)o4)c2S3)C[C@H](C)O1", "RP-LC retention time": "748 s"}
{"molecule": "O=C(Cn1cnc2nc(N3CCC(C(=O)NC4CC4)CC3)sc2c1=O)Nc1ccc(F)cc1F", "RP-LC retention time": "651 s"}

###

Property: RP-LC retention time; scope: individual compounds
- test_protocol: gradient 5% acetonitrile 3 min, to 50% in 2 min, to 85% in 15 min, held 3 min, 100 µL/min
- measurement_context: column: Zorbax Extend-C18 2.1 x 50 mm; eluents: water / acetonitrile, 0.1% formic acid

{"compound": "O=C(Cn1cccc(-c2nc(-c3ccc(F)cc3)no2)c1=O)Nc1ccc(F)c(Cl)c1", "RP-LC retention time, s": 960}
{"compound": "O=C(NCc1ccncc1)C1CCCN(c2ccc(Sc3ccc(Br)cc3)nn2)C1 (centres undefined)", "RP-LC retention time, s": 653}
{"compound": "COc1cc([C@@H]2c3cc4c(cc3[C@H](O)[C@@H](CO)[C@@H]2C(=O)N2CCN(c3ccccc3)CC2)OCO4)cc(OC)c1OC", "RP-LC retention time, s": 749}
{"compound": "Cc1ccc(-c2csc(Cc3nc(-c4ccc5c(c4)OCO5)no3)n2)cc1", "RP-LC retention time, s": 1210}
{"compound": "Cc1sc(NC(=O)c2ccc(F)cc2)nc1-c1ccc(Br)cc1", "RP-LC retention time, s": 1240}
{"compound": "Fc1ccc(Cc2nc3nccc(-c4ccccc4)n3n2)cc1", "RP-LC retention time, s": 890}
{"compound": "Cc1scc2nc(C3CCC3)nc(N3CCC(C(=O)NCc4ccc(N(C)C)cc4)CC3)c12", "RP-LC retention time, s": 604}
{"compound": "CC(=O)c1sc(NC(=O)C2COc3ccccc3O2)nc1C (centres undefined)", "RP-LC retention time, s": 763}
{"compound": "COc1ccc(Cl)cc1NS(=O)(=O)c1cc(-c2cc(C(F)(F)F)on2)sc1C", "RP-LC retention time, s": 1220}

###

Reported values of RP-LC retention time for individual entries
- test_protocol: gradient 5% acetonitrile 3 min, to 50% in 2 min, to 85% in 15 min, held 3 min, 100 µL/min
- measurement_context: column: Zorbax Extend-C18 2.1 x 50 mm; eluents: water / acetonitrile, 0.1% formic acid

{"compound": "CC(C)Cn1c(=O)c(N2CCN(C(=O)C(C)C)CC2)nc2ccccc21", "RP-LC retention time [s]": 1020}
{"compound": "O=C(c1nnc(-c2ccc(S(=O)(=O)N3CCOCC3)cc2)o1)N1CCOCC1", "RP-LC retention time [s]": 689}
{"compound": "CN(C)c1cc(N2CCCC(NC(=O)Cc3ccccc3)C2)ncn1 (centres undefined)", "RP-LC retention time [s]": 795}
{"compound": "Cc1ccc(Nc2c(-c3c(F)cccc3Cl)nc3cccc(C)n23)cc1", "RP-LC retention time [s]": 763}
{"compound": "CC(C)c1ccc(S(=O)(=O)N2CCC(c3cc(N)on3)CC2)cc1", "RP-LC retention time [s]": 902}
{"compound": "O=C1C(=O)N(C2CCN(S(=O)(=O)c3ccc(F)c(F)c3)CC2)CCN1Cc1ccccc1", "RP-LC retention time [s]": 827}
{"compound": "Cc1nc(-c2csc(S(=O)(=O)N3CCCC(C(=O)Nc4ccc(C)c(C)c4)C3)c2)no1 (centres undefined)", "RP-LC retention time [s]": 939}
{"compound": "CC1CC(=O)Nc2ccccc2N1C(=O)COc1ccc(Cl)cc1Cl (centres undefined)", "RP-LC retention time [s]": 844}
{"compound": "Cc1nnc(N2CCCC(C(=O)NCc3cccc(F)c3)C2)c2nn(-c3ccccc3)c(C)c12 (centres undefined)", "RP-LC retention time [s]": 716}

###

- test_protocol: gradient 5% acetonitrile 3 min, to 50% in 2 min, to 85% in 15 min, held 3 min, 100 µL/min
- measurement_context: column: Zorbax Extend-C18 2.1 x 50 mm; eluents: water / acetonitrile, 0.1% formic acid
# maps each entry to its RP-LC retention time

{"molecule": "CCc1nnc(-c2nnc(NC3CCCCCC3)c3ccccc23)o1", "units_of_measure": "s", "RP-LC retention time": 821}
{"molecule": "COc1ccc(-c2noc(-c3ccc(N4CCN(C(=O)c5ccco5)CC4)nc3)n2)cc1", "units_of_measure": "s", "RP-LC retention time": 989}
{"molecule": "COc1ccc(/C=C/c2nc(-c3ccc4oc(C)nc4c3)no2)cc1", "units_of_measure": "s", "RP-LC retention time": 1150}
{"molecule": "CC(=O)N1CCC(C(=O)Nc2nccs2)CC1", "units_of_measure": "s", "RP-LC retention time": 584}
{"molecule": "O=S(=O)(c1cccc2cccnc12)N1CC[C@@H]2COCCN(Cc3ccccc3)[C@@H]2C1", "units_of_measure": "s", "RP-LC retention time": 664}
{"molecule": "O=C(Cn1cnc2nc(N3CCCC(C(=O)NC4CC4)C3)sc2c1=O)Nc1cccc(F)c1 (stereo not drawn)", "units_of_measure": "s", "RP-LC retention time": 655}
{"molecule": "CCc1cccc(NC(=O)N2C[C@@H](F)C[C@H]2C(=O)N2CCc3ccccc3C2)c1", "units_of_measure": "s", "RP-LC retention time": 887}
{"molecule": "O=C(Nc1ccc(F)cc1F)Nc1c[nH]c2ccccc12", "units_of_measure": "s", "RP-LC retention time": 755}
{"molecule": "COc1ccc(OC)c(NC(=O)c2nc(C)oc2C)c1", "units_of_measure": "s", "RP-LC retention time": 935}
{"molecule": "COc1ccc(C(=O)N2CCC3(CC2)N=C(c2ccccc2)NO3)c(OC)c1", "units_of_measure": "s", "RP-LC retention time": 755}
{"molecule": "CC(C)n1c(=O)oc2cc(-c3noc(CNC(=O)c4ccccc4)n3)ccc21", "units_of_measure": "s", "RP-LC retention time": 851}
{"molecule": "CC(=O)N(C)c1ccc(NC(=O)c2c(-c3ccccc3Cl)noc2C)cc1", "units_of_measure": "s", "RP-LC retention time": 774}
{"molecule": "CCOC(=O)c1c(C)oc2nc(C)nc(NCCCN(C)c3ccccc3)c12", "units_of_measure": "s", "RP-LC retention time": 701}
{"molecule": "COc1ccc(Cl)cc1NS(=O)(=O)c1cn(CC(C)C)c2ncccc12", "units_of_measure": "s", "RP-LC retention time": 765}
{"molecule": "Cc1ncsc1C1N(C2CCN(Cc3cn(C)c4ccccc34)CC2)C(=O)C12CCCC2 (stereo not drawn)", "units_of_measure": "s", "RP-LC retention time": 693}
{"molecule": "CCN1C(=O)COc2ccc(-c3csc(NC(=O)c4cccc(C)c4)n3)cc21", "units_of_measure": "s", "RP-LC retention time": 1050}
{"molecule": "CC1(C)C(=O)N(CC(=O)Nc2ccccc2Cl)c2ccccc21", "units_of_measure": "s", "RP-LC retention time": 912}
{"molecule": "C[C@@H]1CN(C(=O)NC2CCCC2)C[C@H]1c1nc(-c2ccncc2)no1", "units_of_measure": "s", "RP-LC retention time": 671}
{"molecule": "CCn1cc(CCNC(=O)Nc2ccc(C)cc2C)c2cccnc21", "units_of_measure": "s", "RP-LC retention time": 705}
{"molecule": "COc1ccc(CNC(=O)c2cn3ccccc3n2)c(OC)c1", "units_of_measure": "s", "RP-LC retention time": 658}
{"molecule": "COc1ccccc1N1CCN(c2cc(SCC(=O)Nc3cc(C)ccc3C)ncn2)CC1", "units_of_measure": "s", "RP-LC retention time": 1070}
{"molecule": "CSc1ccc(C2c3[nH]c4ccccc4c3CCN2C(=O)Cc2cccs2)cc1 (stereo not drawn)", "units_of_measure": "s", "RP-LC retention time": 1200}
{"molecule": "Cc1ccc(NC(=O)C2CCN(S(=O)(=O)c3cc(-c4noc(C5CC5)n4)ccc3C)CC2)nc1", "units_of_measure": "s", "RP-LC retention time": 868}
{"molecule": "CCCn1c(=O)sc2cc(S(=O)(=O)N3CCC(C(=O)N(CC)CC)CC3)ccc21", "units_of_measure": "s", "RP-LC retention time": 881}
{"molecule": "COc1ccc(-c2nc3ccccn3c2Nc2ccc3c(c2)OCO3)cc1", "units_of_measure": "s", "RP-LC retention time": 633}
{"molecule": "CCN(CC)CCNC(=O)c1nnc(-c2oc3c(C)cccc3c2C)o1", "units_of_measure": "s", "RP-LC retention time": 683}
{"molecule": "O=C(Nc1ccc(F)c(F)c1)C1CCN(C(=O)c2ncn3c2COC(c2ccccc2)C3)CC1 (stereo not drawn)", "units_of_measure": "s", "RP-LC retention time": 819}
{"molecule": "Cc1onc(-c2ccccc2Cl)c1C(=O)OCn1nnc2ccccc2c1=O", "units_of_measure": "s", "RP-LC retention time": 891}
{"molecule": "CCN1CCCn2cc(S(=O)(=O)Nc3ccc(Cl)cc3F)cc2C1=O", "units_of_measure": "s", "RP-LC retention time": 763}
{"molecule": "CCc1ccc(NC(=O)Cn2c(=O)nc(N3CCCC(C)C3)c3ccccc32)cc1 (stereo not drawn)", "units_of_measure": "s", "RP-LC retention time": 905}
{"molecule": "CCOC(=O)c1ccc(NC(=O)CSc2cc(N3CCCC3)ncn2)cc1", "units_of_measure": "s", "RP-LC retention time": 828}
{"molecule": "Cc1cc(C2CCCN2C(=O)Nc2ccc(C)c(C)c2)on1 (stereo not drawn)", "units_of_measure": "s", "RP-LC retention time": 728}
{"molecule": "Cc1ccc(NS(=O)(=O)c2cc(-c3nc(C(C)(C)C)cs3)cs2)c(C)c1", "units_of_measure": "s", "RP-LC retention time": 1310}
{"molecule": "O=C(CSc1ccc(N2CCCC(C(=O)NC3CC3)C2)nn1)Nc1ccc2c(c1)CCC2 (stereo not drawn)", "units_of_measure": "s", "RP-LC retention time": 691}
{"molecule": "Cc1nnsc1C(=O)N1CCc2nc(NC(=O)C3CC3)sc2C1", "units_of_measure": "s", "RP-LC retention time": 630}
{"molecule": "Cc1ccc(-c2ccc(-n3nc(C)c(S(=O)(=O)Nc4ccccc4)c3C)nn2)cc1", "units_of_measure": "s", "RP-LC retention time": 1060}
{"molecule": "Cc1cccc(OCc2nc(CCN(C)C(=O)Nc3cc(F)ccc3F)no2)c1", "units_of_measure": "s", "RP-LC retention time": 1000}
{"molecule": "COc1ccc(N2CCN(c3nc(C(=O)N4CCN(C)CC4)cs3)CC2)cc1", "units_of_measure": "s", "RP-LC retention time": 614}
